Tested on: Fer (mouse)
Procedure text: phosphorylation enrichment, bacterial display (enrichment ratio); higher = better substrate or ligand; peptides without Tyr show the background;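 further: 11-residue human phosphosite peptides and single-mutation variants displayed on the E. coli surface, counted by deep sequencing, each peptide's frequency after selection divided by its frequency in the unselected input library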;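 further: frequency after pTyr selection over input frequency; kinase dosed for 20-30% of maximal phosphorylation in three min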
Quantity name: phosphorylation enrichment
Returns: the value as a bare number; no unit string appended.

Prompt: Assign phosphorylation enrichment to the following record: QSMEPYTKQQL [STAT3_Y640_V637M]
Completion: 0.546

Prompt: Let me know recorded phosphorylation enrichment for CRAVKYLQMVG [AVPR2_Y117] , thanks.
Completion: 0.443

Prompt: Please report phosphorylation enrichment for the following sequence: DLVSEYQQFQD [TUBB3_Y422_YF]
Completion: 0.58

Prompt: Look up and state reported phosphorylation enrichment for TQKLAYVELQQ [CENPF_Y700_M701V]
Completion: 0.449

Prompt: Given the sequence PNAYIYVVQLP [L1CAM_Y420_A415P] , write its reported phosphorylation enrichment.
Completion: 0.47

Prompt: Look up and report measured phosphorylation enrichment for this entry: IFHLSYHHNCE [PDE6B_Y227_L228H_YF]
Completion: 0.517

Prompt: Please report phosphorylation enrichment for the following sequence: SRFQFYFQQKG [CHKB_Y381]
Completion: 0.597

Prompt: Input EYGFRYELVQY [UGGT2_Y1289] , output reported phosphorylation enrichment.
Completion: 3.36

Prompt: Look up and state reported phosphorylation enrichment for LFQAKYQIRFR [CRLF1_Y272_YF]
Completion: 0.972

Prompt: Give me measured phosphorylation enrichment, please, for this sequence: EAVSIYQFHGQ [CBLC_Y402]
Completion: 10.4

Prompt: Given the sequence YDRREYSRFEK [ITGB7_Y758] , write its reported phosphorylation enrichment.
Completion: 0.545

Prompt: Return phosphorylation enrichment for the following sequence: NTFEKYLGEEF [TF_Y669_YF]
Completion: 0.491

Prompt: Write down phosphorylation enrichment measured for item KYLENYLNCLL [PLD2_Y169_R172C]
Completion: 0.707

Prompt: For the sequence NVTRKYTRQIL [MAP3K2_Y463] , report phosphorylation enrichment.
Completion: 0.305

====

Test system: c-Abl (mouse)
Procedure text: phosphorylation enrichment, bacterial display (enrichment ratio); higher = better substrate or ligand; peptides without Tyr show the background
Rule: phosphorylation enrichment of 0.7 or more gives Yes; anything lower gives No.

Prompt: Is phosphorylation enrichment at least 0.7? Consider NTGDYCDLYGG [PTPN11_Y63_Y63C]
Completion: Yes

Prompt: State whether the measured phosphorylation enrichment reaches 0.7, counting equality as reaching it, for LAEMNYVHRDL [EPHB1_Y740]
Completion: Yes

Prompt: In plain terms: is recorded phosphorylation enrichment at least 0.7 for DEDFLYREELA [POR_Y575_YF] ?
Completion: Yes

Prompt: # check: phosphorylation enrichment of FPRAWCRRSIA [KIAA1109_Y4272_Y4272C] is greater than or equal to 0.7
Completion: No

Prompt: Does IKNSGYISQFL [EIF2AK3_Y585_R588Q_YF] have a reported phosphorylation enrichment of at least 0.7?
Completion: No

Prompt: Quick check: does RQSHNYLGGFA [SYK_Y47_R45H] have phosphorylation enrichment greater than or equal to 0.7?
Completion: Yes

Prompt: Hi, just wondering whether LNPDGYKKAYE [CPXM2_Y427_E428K] shows phosphorylation enrichment of 0.7 or higher.
Completion: Yes

Prompt: Given the entry VIESSYQVAKA [CPT1B_Y534] , answer whether its phosphorylation enrichment meets or surpasses 0.7.
Completion: No

Prompt: Does the reported phosphorylation enrichment for HGQVNYEEFVQ [CALM2_Y139_D134H] fall at or above the 0.7 mark?
Completion: Yes

Prompt: Determine whether measured phosphorylation enrichment meets or exceeds 0.7 for GANFEYIIAEK [ECHS1_Y35]
Completion: No

Prompt: Determine whether this sequence has phosphorylation enrichment no lower than 0.7: KNSSIYVVANI [VNN1_Y134_N131S]
Completion: Yes

Prompt: Reported phosphorylation enrichment reaches at least 0.7 for MSNVPYVMNRG [ACAT1_Y161] ?
Completion: No

Prompt: Is phosphorylation enrichment for FRSSLYSLMET [MYO5C_Y633_L634S] at or above 0.7?
Completion: No

====

Provide the reported phosphorylation enrichment of each item.
System: AncSZ
Procedure text: phosphorylation enrichment, bacterial display (enrichment ratio); higher = better substrate or ligand; peptides without Tyr show the background
Lab note: record the figure alone, no unit after it.

Prompt: Give the value of phosphorylation enrichment reported for the following: ALDHKYHGGGG [HBB_Y146_A143D]
Completion: 0.458

Prompt: Fill in phosphorylation enrichment for record YKIYRYTLNDN [FN1_Y1975_L1974R]
Completion: 1.13

Prompt: Name the recorded phosphorylation enrichment of the sequence listed here: QPGDIYHQTWA [GBA_Y244]
Completion: 0.989

Prompt: State its phosphorylation enrichment: AVVEPYNSLLT [TUBA1A_Y185_I188L]
Completion: 0.888

Prompt: Kindly indicate its recorded phosphorylation enrichment. Item: FNNPAYFVLEG [INPPL1_Y986_YF]
Completion: 1.25

Prompt: Report phosphorylation enrichment, nothing else, for this sequence: KELAKYYKLHH [AK7_Y390_N389K]
Completion: 0.472

Prompt: Indicate its recorded phosphorylation enrichment; the sequence in question is NETNKYQISVN [FGB_Y368_A365T]
Completion: 0.653

Prompt: Give the value of phosphorylation enrichment reported for the following: RAEAPYLLVSN [LRIG1_Y1054_Q1053P]
Completion: 0.655

Prompt: Give recorded phosphorylation enrichment. YEEDSYVKRSQ [RET_Y905]
Completion: 1.17

Prompt: Given the sequence AVAFLYFKSIG [ADGRL4_Y301_V300L_YF] , write its reported phosphorylation enrichment.
Completion: 1.14

Prompt: Identify phosphorylation enrichment associated with the sequence NNIDFYKKTTN [FGFR2_Y657_YF]
Completion: 0.637

Prompt: Give phosphorylation enrichment for the following sequence: EESREYDRLFE [PIK3R1_Y463_K459E_YF]
Completion: 1.46

Prompt: State its phosphorylation enrichment: NPQKSYFIRLY [WAS_Y83]
Completion: 1.16

Prompt: Supply recorded phosphorylation enrichment for LNPFIYSLRNC [OR1A2_Y288_W293C] here.
Completion: 1.45

====

Test system: c-Abl (mouse)
Procedure text: phosphorylation enrichment, bacterial display (enrichment ratio); higher = better substrate or ligand; peptides without Tyr show the background
Consider the following sequences; for each one, report its phosphorylation enrichment.
I'd appreciate a reply containing only the number, no unit.

Prompt: Supply measured phosphorylation enrichment of FGEFRYRSVIK [CFTR_Y517_D513G_YF] in your reply.
Completion: 0.574

Prompt: Annotate the sequence AGQERYRAITS [RAB11B_Y73] with its measured phosphorylation enrichment.
Completion: 0.605

Prompt: Please report the measured phosphorylation enrichment for LHQSTYQRYDV [SLC7A14_Y693]
Completion: 0.444

Prompt: Please give the documented phosphorylation enrichment of VVIVLYFSLWK [SLC6A2_Y249]
Completion: 0.942

Prompt: Read the entry SVVVPYEPPEF [TP53_Y220_V225F] and write its reported phosphorylation enrichment.
Completion: 0.743

Prompt: Tell me measured phosphorylation enrichment for AIQDAYMHITS [ADCY10_Y318] please.
Completion: 0.588

Prompt: Quote phosphorylation enrichment reported for KLSCSYSHWSA [C4BPA_Y470] please.
Completion: 1.15

Prompt: Identify measured phosphorylation enrichment associated with RRAKGYPIDLY [ITGB2_Y125]
Completion: 0.868

Prompt: Quick one: give measured phosphorylation enrichment for VHKEGYNKLNQ [ZNF676_Y98]
Completion: 0.752

Prompt: Answer with reported phosphorylation enrichment of GEAEQYVGGGG [FAT4_Y4980]
Completion: 0.584

Prompt: Name the recorded phosphorylation enrichment of the item ATATEYHTTSH [SLC4A1_Y46_D45E] in your answer.
Completion: 0.487

Prompt: Identify phosphorylation enrichment associated with the sequence DLVSEYQQFQD [TUBB3_Y422_YF]
Completion: 0.8

Prompt: Tell me phosphorylation enrichment reported for NHRNQYQALKP [CLSPN_Y887]
Completion: 0.476

Prompt: Annotate the sequence KELSSYKHLTL [SLIT2_Y776_N775S] with its measured phosphorylation enrichment.
Completion: 0.511

Prompt: State its phosphorylation enrichment for this sequence: NPPGMYPVTGP [LPP_Y346]
Completion: 0.506

Prompt: Tell me phosphorylation enrichment reported for STTSDYQWDFS [MTDH_Y364_V368F]
Completion: 0.736

Prompt: # return recorded phosphorylation enrichment for input SVGGLYRDMGA [CBX8_Y321_G317V]
Completion: 0.555

Prompt: Determine from records and report phosphorylation enrichment for PTYKHYANSTQ [SLC12A3_Y70_E68K]
Completion: 0.44

Prompt: Quickly give me recorded phosphorylation enrichment for YLTSSYINIST [IL23R_Y178]
Completion: 1.11

Prompt: Please report the measured phosphorylation enrichment for QGRQTYLLQPA [DDR2_Y813_P815L]
Completion: 0.693

Prompt: State its phosphorylation enrichment: TLQSMSGCDVG [HLA-B_Y123_Y123S]
Completion: 0.536

Prompt: Give reported phosphorylation enrichment value for CLAQRYLIWEC [SCN5A_Y694_R689C]
Completion: 0.788

Prompt: Look up and state reported phosphorylation enrichment for HRNNNYEPNLF [BRCA2_Y57_K53R]
Completion: 0.509

Prompt: Specify phosphorylation enrichment for PDMHSYMVRFN [GRIN2D_Y732_YF] and stop.
Completion: 0.811

Prompt: Determine from records and report phosphorylation enrichment for SSREGYVSHHN [FAM83B_Y433]
Completion: 0.445

Prompt: Check the records and state phosphorylation enrichment for KLADVYQAELR [GFAP_Y116]
Completion: 0.549

Prompt: Give the value of phosphorylation enrichment reported for the following: CTTIHYNYKCN [TP53_Y234_M237K]
Completion: 0.493

Prompt: Consider the sequence HNLNFYKKTTN [FGFR3_Y648_D646N_YF] and give its recorded phosphorylation enrichment.
Completion: 0.642

Prompt: Determine from records and report phosphorylation enrichment for AKLKDYFIFNK [CCDC42_Y149_YF]
Completion: 0.435
